- Experiment description: In vitro mucosal-to-serosal vancomycin transport, modified Ussing chambers, jejunum
- Format: in vitro ADME, rat
- Condition context: male, rat, pH 7.4, with quinidine 0.15 mM in the serosal chamber, 5 mg/ml; jejunum; 0.15 mM Quinidine in serosal chamber
Where a name gives a salt, the structure may show the parent alone.
Readout name: Papp at 2.5 hr, 5 mg/ml (×10⁻⁶ cm/s)
Just the number please, in ×10⁻⁶ cm/s, no unit attached.

q: If you can, please state the reported Papp at 2.5 hr, 5 mg/ml value of CN[C@H](CC(C)C)C(=O)N[C@H]1C(=O)N[C@@H](CC(N)=O)C(=O)N[C@H]2C(=O)N[C@H]3C(=O)N[C@H](C(=O)N[C@H](C(=O)O)c4cc(O)cc(O)c4-c4cc3ccc4O)[C@H](O)c3ccc(c(Cl)c3)Oc3cc2cc(c3O[C@@H]2O[C@H](CO)[C@@H](O)[C@H](O)[C@H]2O[C@H]2C[C@](C)(N)[C@H](O)[C@H](C)O2)Oc2ccc(cc2Cl)[C@H]1O [Vancomycin hydrochloride] .
a: 2.06
